Taken from paper PMC6199744.

Hi there, I'd appreciate the recorded fold changes relative to vehicle control for every entry that follows.
Biological target: HeLa cell extract proteins (Homo sapiens, UniProt P29692)
Construct: endogenous in cells; host or cells: HeLa cell extract
Sequence (P29692 1-281): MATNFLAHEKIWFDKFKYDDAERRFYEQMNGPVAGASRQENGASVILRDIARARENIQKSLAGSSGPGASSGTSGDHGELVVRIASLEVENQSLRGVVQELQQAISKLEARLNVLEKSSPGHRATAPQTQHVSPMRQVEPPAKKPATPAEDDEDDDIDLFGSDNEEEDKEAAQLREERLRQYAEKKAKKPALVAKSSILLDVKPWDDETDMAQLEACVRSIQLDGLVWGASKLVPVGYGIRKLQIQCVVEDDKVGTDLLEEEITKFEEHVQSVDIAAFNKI
Type: binding
Conditions: protein EEF1D; HeLa
Keep it simple and answer with nothing but the number.

Problem: State the recorded fold changes relative to vehicle control for this entry: Nc1nc2c(c(=O)[nH]1)N(C=O)C(CNc1ccc(C(=O)N[C@@H](CCC(=O)O)C(=O)O)cc1)CN2 (stereo partly drawn)
Solution: 0.99

Problem: State the recorded fold changes relative to vehicle control for this entry: `CCCCCCOc1cccc(Cc2cnc(N)nc2N)c1`
Solution: 1.8

Problem: State the recorded fold changes relative to vehicle control for this entry: NCCOCCOCC(=O)Nc1nc2ncc(CNc3ccc(C(=O)NC(CCC(=O)O)C(=O)O)cc3)nc2c(=O)[nH]1 (stereo not drawn)
Solution: 1.09

Problem: State the recorded fold changes relative to vehicle control for this entry: `Nc1nc2cccc(-c3ccccc3)c2n1Cc1ccc(Cl)c(Cl)c1`
Solution: 1.1

Problem: State the recorded fold changes relative to vehicle control for this entry: NCCCNc1ccc(C(=O)NC(CCC(=O)O)C(=O)O)cc1 (stereo not drawn)
Solution: 0.93

Problem: State the recorded fold changes relative to vehicle control for this entry: `CCCCCCOc1ccc(Cc2cnc(N)nc2N)cc1`
Solution: 1.26

###

Hi there, I'd appreciate the recorded percentage of competition from bead binding for every entry that follows.
Tested on: TB11.03.0290
Test: Multitargeted bead mixture competition
Type: binding, T. brucei
Settings: multitargeted bead mixture; free ligand 100 μM; T. brucei lysate; TB11.03.0290
Give the number; % is assumed, so skip it.

Problem: State the recorded percentage of competition from bead binding for this entry: Nc1nc2cccc(-c3ccccc3)c2n1Cc1ccc(Cl)c(Cl)c1 [compound 3]
Solution: 10

Problem: State the recorded percentage of competition from bead binding for this entry: Nc1nc(O)c2c(CCc3ccccc3)c[nH]c2n1 [compound 5]
Solution: 61

Problem: State the recorded percentage of competition from bead binding for this entry: CN(Cc1cnc2nc(N)nc(N)c2n1)c1ccc(C(=O)N[C@@H](CCC(=O)O)C(=O)O)cc1 [MTX, methotrexate]
Solution: 57

Problem: State the recorded percentage of competition from bead binding for this entry: Cc1ccc2nc(N)[nH]c(=O)c2c1Sc1ccncc1 [NTX, nolatrexed]
Solution: 77

###

Target: HeLa cell extract proteins (Homo sapiens)
Construct: endogenous in cells; host or cells: HeLa cell extract
Assay type: binding
Details: protein PSMD1; HeLa
Classify by measured fold changes relative to vehicle control: label 1 if it is equal to or exceeds 1, label 0 if it is smaller.

Problem: Does the compound NCCCNc1ccc(C(=O)NC(CCC(=O)O)C(=O)O)cc1 (stereo not drawn) [compound 7] have recorded fold changes relative to vehicle control that is 1 or more?
Solution: label 1

Problem: Does the compound CCCCCCOc1ccc(Cc2cnc(N)nc2N)cc1 [compound 1] have recorded fold changes relative to vehicle control that is 1 or more?
Solution: label 1

Problem: Does the compound CCCCCCOc1cccc(Cc2cnc(N)nc2N)c1 [compound 2] have recorded fold changes relative to vehicle control that is 1 or more?
Solution: label 1

Problem: Does the compound Nc1nc2c(c(=O)[nH]1)N(C=O)C(CNc1ccc(C(=O)N[C@@H](CCC(=O)O)C(=O)O)cc1)CN2 (stereo partly drawn) [LEU, leucovorin] have recorded fold changes relative to vehicle control that is 1 or more?
Solution: label 0

Problem: Does the compound Nc1nc2cccc(-c3ccccc3)c2n1Cc1ccc(Cl)c(Cl)c1 [compound 3] have recorded fold changes relative to vehicle control that is 1 or more?
Solution: label 1

Problem: Does the compound NCCOCCOCC(=O)Nc1nc2ncc(CNc3ccc(C(=O)NC(CCC(=O)O)C(=O)O)cc3)nc2c(=O)[nH]1 (stereo not drawn) [compound 6] have recorded fold changes relative to vehicle control that is 1 or more?
Solution: label 1
